The reported measurements were obtained from the supplement of paper PMC10065799.

# target-of-assay: Grb2 SH2 (UniProt P62993)
# Sequence (P62993 whole entry, looked up): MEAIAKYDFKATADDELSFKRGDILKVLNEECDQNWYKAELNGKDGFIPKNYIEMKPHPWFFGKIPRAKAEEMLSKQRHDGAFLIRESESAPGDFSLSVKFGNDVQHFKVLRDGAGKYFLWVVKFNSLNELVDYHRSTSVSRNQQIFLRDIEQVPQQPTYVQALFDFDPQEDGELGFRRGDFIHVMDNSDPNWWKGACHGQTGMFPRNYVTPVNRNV
# assay-info: SH2 binding enrichment of the phosphorylated peptide, bacterial display (enrichment ratio); higher = better substrate or ligand; peptides without Tyr show the background
readout-name: SH2 binding enrichment
No unit in the answer, only the number.

Observe how each entry below is paired with its result.
[[record]]
residues = "KDYETYQSFQN [CTNND2_Y1157_P1159S]"
target_of_assay = "Grb2 SH2 (UniProt P62993)"
value = 0.981

[[record]]
residues = "CRPPYYHRNCM [HGD_Y334_F329C]"
target_of_assay = "Grb2 SH2 (UniProt P62993)"
value = 1.78

[[record]]
residues = "YTTIHYNYMCN [TP53_Y234_C229Y]"
target_of_assay = "Grb2 SH2 (UniProt P62993)"
value = 1


// Input: KSLSQYLEMDK [CAGE1_Y438_V435L] . Output its SH2 binding enrichment only.
0.709

// Input: HNLFSYPTKHE [MYO3A_Y1396_YF] . Output its SH2 binding enrichment only.
0.576

// Input: QLFGAYLRIHA [BSCL2_Y213_YF] . Output its SH2 binding enrichment only.
1.28

###

# target-of-assay: Hck (UniProt P08631)
# Sequence (P08631 whole entry, looked up): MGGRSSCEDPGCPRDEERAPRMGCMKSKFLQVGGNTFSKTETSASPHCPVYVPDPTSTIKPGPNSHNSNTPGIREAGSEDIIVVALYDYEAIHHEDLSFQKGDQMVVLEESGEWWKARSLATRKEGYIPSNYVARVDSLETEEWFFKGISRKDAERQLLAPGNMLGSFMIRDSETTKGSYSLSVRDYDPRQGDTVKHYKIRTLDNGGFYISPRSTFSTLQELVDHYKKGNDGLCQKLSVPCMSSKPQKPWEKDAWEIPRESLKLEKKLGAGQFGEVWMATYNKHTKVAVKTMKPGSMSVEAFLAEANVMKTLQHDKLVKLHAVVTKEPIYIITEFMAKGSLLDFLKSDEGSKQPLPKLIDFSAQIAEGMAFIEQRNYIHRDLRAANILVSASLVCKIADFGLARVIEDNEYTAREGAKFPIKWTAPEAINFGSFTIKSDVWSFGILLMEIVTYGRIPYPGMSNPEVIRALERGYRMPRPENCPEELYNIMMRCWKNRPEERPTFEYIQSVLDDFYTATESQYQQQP
# assay-info: phosphorylation enrichment, bacterial display (enrichment ratio); higher = better substrate or ligand; peptides without Tyr show the background
Would you mind classing the entries by phosphorylation enrichment? Ranges: class 0: < 0.5; class 1: ≥ 0.5 and < 0.6; class 2: ≥ 0.6

[[record]]
residues = "FRARAYSFRGP [CHGA_Y381_G382S]"
cat = "class 0"

[[record]]
residues = "WPLKWYAPECI [ZAP70_Y506]"
cat = "class 0"

[[record]]
residues = "FRQNVYIPGSN [PCDHGA1_Y895_YF]"
cat = "class 0"


Form: Item = PVVKLYATDGR [RP1_Y199] ; Class = ?
class 1

###

# target-of-assay: Grb2 SH2 (UniProt P62993)
# assay-info: SH2 binding enrichment of the phosphorylated peptide, bacterial display (enrichment ratio); higher = better substrate or ligand; peptides without Tyr show the background
readout-name: SH2 binding enrichment
No unit in the answer, only the number.

Observe how each entry below is paired with its result.
[[record]]
residues = "NQDRTYFESVR [SPEN_Y632_YF]"
value = 0.886

[[record]]
residues = "FSQETYFRVSN [ABCD1_Y180_Q178E_YF]"
value = 0.481

[[record]]
residues = "VGTKRYRAPEV [ACVRL1_Y375_M376R]"
value = 0.892

[[record]]
residues = "RGDSAYHSQRH [ERBB3_Y1132]"
value = 1.11

[[record]]
residues = "GRPMDYHVSIT [OTOF_Y254_Q255H]"
value = 0.825


// fetch SH2 binding enrichment for QKNVSYVSRVS [TASOR_Y1043_T1046R] ; system: Grb2 SH2 (UniProt P62993)
0.853

// fetch SH2 binding enrichment for HRGCLYLAIEY [TEK_Y899_Y897C] ; system: Grb2 SH2 (UniProt P62993)
1.04

// fetch SH2 binding enrichment for FEEDSYSHVMA [FDPS_Y388_I391V_YF] ; system: Grb2 SH2 (UniProt P62993)
0.983

// fetch SH2 binding enrichment for KNILCYIQGGS [HYDIN_Y4610] ; system: Grb2 SH2 (UniProt P62993)
0.617

// fetch SH2 binding enrichment for VEFAKYGSLRG [RET_Y809_YF] ; system: Grb2 SH2 (UniProt P62993)
0.817

###

# target-of-assay: Jak2 (UniProt O60674)
# Sequence (O60674 whole entry, looked up): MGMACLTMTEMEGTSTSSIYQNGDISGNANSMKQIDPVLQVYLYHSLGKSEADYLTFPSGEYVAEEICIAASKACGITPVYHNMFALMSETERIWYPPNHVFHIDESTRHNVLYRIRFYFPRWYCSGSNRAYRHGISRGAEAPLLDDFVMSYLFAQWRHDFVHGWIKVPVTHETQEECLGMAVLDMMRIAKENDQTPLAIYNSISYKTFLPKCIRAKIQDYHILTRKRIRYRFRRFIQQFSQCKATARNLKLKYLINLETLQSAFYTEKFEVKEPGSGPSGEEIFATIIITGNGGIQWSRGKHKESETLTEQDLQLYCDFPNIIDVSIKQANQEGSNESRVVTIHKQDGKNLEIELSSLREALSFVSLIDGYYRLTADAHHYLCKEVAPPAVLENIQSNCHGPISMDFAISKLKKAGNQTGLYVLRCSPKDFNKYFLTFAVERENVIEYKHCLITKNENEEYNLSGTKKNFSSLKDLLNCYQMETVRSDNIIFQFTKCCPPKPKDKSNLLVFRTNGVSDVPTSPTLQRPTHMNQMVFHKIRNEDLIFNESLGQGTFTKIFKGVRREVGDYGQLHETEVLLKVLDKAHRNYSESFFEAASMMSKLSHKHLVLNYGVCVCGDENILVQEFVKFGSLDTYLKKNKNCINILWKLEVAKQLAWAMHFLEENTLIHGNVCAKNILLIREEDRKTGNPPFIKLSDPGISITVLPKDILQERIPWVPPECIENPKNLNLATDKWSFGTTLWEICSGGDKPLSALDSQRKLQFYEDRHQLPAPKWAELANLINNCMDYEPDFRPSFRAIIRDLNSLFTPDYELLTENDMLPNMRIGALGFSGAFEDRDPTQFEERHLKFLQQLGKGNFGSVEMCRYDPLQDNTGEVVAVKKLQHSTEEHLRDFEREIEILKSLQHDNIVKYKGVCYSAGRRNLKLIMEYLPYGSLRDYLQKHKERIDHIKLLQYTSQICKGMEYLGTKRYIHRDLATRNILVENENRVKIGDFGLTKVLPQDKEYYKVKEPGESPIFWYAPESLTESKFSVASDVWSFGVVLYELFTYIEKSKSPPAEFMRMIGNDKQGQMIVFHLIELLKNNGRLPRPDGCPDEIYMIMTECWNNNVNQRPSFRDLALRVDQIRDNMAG
# assay-info: phosphorylation enrichment, bacterial display (enrichment ratio); higher = better substrate or ligand; peptides without Tyr show the background
Items are presented alongside their recorded phosphorylation enrichment.
No unit in the answer, only the number.

[[record]]
residues = "IVAREYYSEAD [CAMK2A_Y106]"
target_of_assay = "Jak2 (UniProt O60674)"
readout_name = "phosphorylation enrichment"
value = 1.01

[[record]]
residues = "MNLLGYRHVRS [CHST4_Y359]"
target_of_assay = "Jak2 (UniProt O60674)"
readout_name = "phosphorylation enrichment"
value = 0.691

[[record]]
residues = "SHLEDYPFNAE [AKR1B10_Y310]"
target_of_assay = "Jak2 (UniProt O60674)"
readout_name = "phosphorylation enrichment"
value = 1.03


// Input: STAPSYGNPSS [CD19_Y378_G373S] . Output its phosphorylation enrichment only.
0.503

// Input: SPQAHYRLSAF [ADAMTS9_Y100_S96P] . Output its phosphorylation enrichment only.
0.584

// Input: GGTTMYPGIAD [ACTC1_Y308] . Output its phosphorylation enrichment only.
0.766

// Input: EESREYDRLYE [PIK3R1_Y463_K459E] . Output its phosphorylation enrichment only.
1.45

###

# target-of-assay: Hck (UniProt P08631)
# assay-info: phosphorylation enrichment, bacterial display (enrichment ratio); higher = better substrate or ligand; peptides without Tyr show the background
Hi, to clarify the labels: satisfied covers phosphorylation enrichment from 0.5 upward, not satisfied covers anything below 0.5.

These solved cases illustrate the format of a correct answer.
[[record]]
residues = "NTGLEYIKFTW [HRH1_Y386_D385E]"
target_of_assay = "Hck (UniProt P08631)"
cat = "satisfied"

[[record]]
residues = "KDLPNYNWKSF [KISS1_Y112_N115K]"
target_of_assay = "Hck (UniProt P08631)"
cat = "not satisfied"

[[record]]
residues = "QGIFGYHHHMQ [UFSP2_Y287_Y290H_YF]"
target_of_assay = "Hck (UniProt P08631)"
cat = "satisfied"


Proceed to the following item.
Does KILTHYKQPHT [KMT2D_Y5349_R5351Q] have a reported phosphorylation enrichment of at least 0.5?
not satisfied

###

# target-of-assay: FGFR3 (UniProt P22607)
# Sequence (P22607 whole entry, looked up): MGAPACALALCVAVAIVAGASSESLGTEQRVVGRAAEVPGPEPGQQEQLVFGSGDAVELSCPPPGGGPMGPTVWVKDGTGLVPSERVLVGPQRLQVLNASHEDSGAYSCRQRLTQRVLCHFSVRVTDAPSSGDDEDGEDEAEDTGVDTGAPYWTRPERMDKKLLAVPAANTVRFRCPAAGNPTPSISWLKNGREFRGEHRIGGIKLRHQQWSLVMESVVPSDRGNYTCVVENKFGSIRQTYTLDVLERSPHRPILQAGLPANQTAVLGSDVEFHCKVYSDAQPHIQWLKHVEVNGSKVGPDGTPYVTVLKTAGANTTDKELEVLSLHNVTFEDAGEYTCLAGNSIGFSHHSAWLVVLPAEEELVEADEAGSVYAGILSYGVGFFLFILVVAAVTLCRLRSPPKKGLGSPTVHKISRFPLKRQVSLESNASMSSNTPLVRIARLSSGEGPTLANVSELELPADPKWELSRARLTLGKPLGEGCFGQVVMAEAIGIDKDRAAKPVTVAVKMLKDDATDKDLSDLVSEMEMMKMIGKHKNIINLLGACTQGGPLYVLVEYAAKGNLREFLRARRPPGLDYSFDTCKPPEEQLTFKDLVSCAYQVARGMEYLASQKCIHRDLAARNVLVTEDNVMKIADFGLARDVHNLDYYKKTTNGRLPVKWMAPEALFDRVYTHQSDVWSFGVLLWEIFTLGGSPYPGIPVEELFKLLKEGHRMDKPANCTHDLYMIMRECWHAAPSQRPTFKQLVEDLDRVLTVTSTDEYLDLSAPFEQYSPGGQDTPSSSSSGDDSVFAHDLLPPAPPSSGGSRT
# assay-info: phosphorylation enrichment, bacterial display (enrichment ratio); higher = better substrate or ligand; peptides without Tyr show the background
readout-name: phosphorylation enrichment
No unit in the answer, only the number.

[[record]]
residues = "AKNKDYMSIIR [GNE_Y197]"
value = 0.585

[[record]]
residues = "FGSLLYKYAFK [FANCD2_Y458]"
value = 0.684

[[record]]
residues = "LASSEYPVQRR [GALK1_Y236_R239Q]"
value = 1.17

[[record]]
residues = "RDVEQYVNNVN [PCDH19_Y1097_L1094V]"
value = 0.701


// Input: EGTATYAAAVL [JUP_Y644] . Output its phosphorylation enrichment only.
0.458

// Input: SSWPGYVRPLP [HSPB1_Y54] . Output its phosphorylation enrichment only.
0.458

// Input: FSTSPYLLEAA [BRIP1_Y921_YF] . Output its phosphorylation enrichment only.
0.667

###

Items are presented alongside their recorded phosphorylation enrichment.
# target-of-assay: FGFR3 (UniProt P22607)
# assay-info: phosphorylation enrichment, bacterial display (enrichment ratio); higher = better substrate or ligand; peptides without Tyr show the background
No unit in the answer, only the number.

Observe how each entry below is paired with its result.
[[record]]
residues = "FGISGYLVDSV [MAP2K3_Y214]"
value = 0.631

[[record]]
residues = "KTGDYYDLYGG [PTPN11_Y63_N58K]"
value = 13.8

[[record]]
residues = "FRPPYYHRDCM [HGD_Y334_N337D]"
value = 0.735

[[record]]
residues = "KFEDVYVGICL [B3GALNT1_Y269]"
value = 1.24

[[record]]
residues = "KHCEDYVCSYN [DSC1_Y846]"
value = 0.662


// Input: GGTTMYPGIAD [ACTC1_Y308] . Output its phosphorylation enrichment only.
0.576

// Input: GKTQQYDCKWF [BCR_Y751_YF] . Output its phosphorylation enrichment only.
0.63

###

# target-of-assay: Jak2 (UniProt O60674)
# assay-info: phosphorylation enrichment, bacterial display (enrichment ratio); higher = better substrate or ligand; peptides without Tyr show the background
Hi, to clarify the labels: yes covers phosphorylation enrichment from 1 upward, no covers anything below 1.

These solved cases illustrate the format of a correct answer.
[[record]]
residues = "ECKEAYHEGEC [PRKN_Y372]"
cat = "yes"

[[record]]
residues = "KDYETYQSFQN [CTNND2_Y1157_P1159S]"
cat = "yes"

[[record]]
residues = "RFLERYIFNRE [HLA-DPB1_Y57_YF]"
cat = "no"

[[record]]
residues = "DLRTGYSVPYG [TGM1_Y370_Y365D]"
cat = "no"

[[record]]
residues = "EQFELHCEMGS [CBL_Y371_Y371H_YF]"
cat = "yes"

[[record]]
residues = "KRAIGYFSATS [FAM120A_Y327_YF]"
cat = "no"


Does GGSSPYSRRLA [CDK13_Y351_P356A] have a reported phosphorylation enrichment of at least 1?
no

Does SPRDTYSDRIG [CTPS1_Y567_S571I] have a reported phosphorylation enrichment of at least 1?
no

Does REGKIYEFNQV [ZNF665_Y162_H157R_YF] have a reported phosphorylation enrichment of at least 1?
no

Does VLDSHYPEDEV [C1QBP_Y188_C186S] have a reported phosphorylation enrichment of at least 1?
yes

Does HHTDEYEFDEL [TGM1_Y134_YF] have a reported phosphorylation enrichment of at least 1?
yes

Does RPYRPYIIRGM [LRP5_Y1531] have a reported phosphorylation enrichment of at least 1?
no
